biological target: R195P-1 mutant of 3β-HSD1 (Homo sapiens, UniProt P14060, R196P); experiment: Inhibition of 3β-HSD activity of purified enzyme, Dixon analysis
Sequence (P14060 whole entry R196P): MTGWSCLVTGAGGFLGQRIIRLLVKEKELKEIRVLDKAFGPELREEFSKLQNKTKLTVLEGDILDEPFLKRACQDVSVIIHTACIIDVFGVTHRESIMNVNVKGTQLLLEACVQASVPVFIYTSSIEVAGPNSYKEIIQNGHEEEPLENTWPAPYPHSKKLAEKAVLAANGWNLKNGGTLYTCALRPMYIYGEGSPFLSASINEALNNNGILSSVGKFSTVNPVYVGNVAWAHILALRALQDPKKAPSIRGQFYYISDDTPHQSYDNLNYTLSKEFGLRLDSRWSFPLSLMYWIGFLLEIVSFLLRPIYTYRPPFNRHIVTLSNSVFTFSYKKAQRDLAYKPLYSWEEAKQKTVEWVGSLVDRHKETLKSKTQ
measure: pKi
The read-out pKi is expressed as -log10 of concentration in moles per litre.

Any idea what its pKi is? The compound is C[C@]12CC[C@H]3[C@@H](CC[C@@]45O[C@@H]4C(O)=C(C#N)C[C@]35C)[C@@H]1CC[C@@H]2O
5.59

---

Molecular target: human 3β-HSD2 (Homo sapiens, UniProt P26439)
Sequence (P26439 1-372): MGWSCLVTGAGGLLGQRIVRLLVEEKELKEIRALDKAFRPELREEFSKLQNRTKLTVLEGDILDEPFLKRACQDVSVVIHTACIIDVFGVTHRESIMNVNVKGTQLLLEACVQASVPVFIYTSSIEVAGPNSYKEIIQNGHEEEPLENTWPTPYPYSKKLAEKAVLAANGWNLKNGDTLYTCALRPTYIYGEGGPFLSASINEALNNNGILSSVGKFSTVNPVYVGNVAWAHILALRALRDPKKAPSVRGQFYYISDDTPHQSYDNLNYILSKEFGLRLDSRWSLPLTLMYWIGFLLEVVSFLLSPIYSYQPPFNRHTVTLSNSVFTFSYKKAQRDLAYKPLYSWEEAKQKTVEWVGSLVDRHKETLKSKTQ
measure: pKi
The read-out pKi is expressed as -log10 of concentration in moles per litre.

Any idea what its pKi is? The compound is C[C@]1(O)CC[C@H]2[C@@H]3CC[C@@]45O[C@]4(C)C(O)=C(C#N)C[C@]5(C)[C@H]3CC[C@@]21C [epostane]
6.01

Provenance of the data: paper PMC2999670
